Test system: BHK-21 cells
Test: Cell viability assay (trypan blue), BHK-21 cells
Settings: BHK-21 cells, 48 hours, trypan blue staining
measure: CC50 BHK-21

Guide cases for CC50 BHK-21, answers given:
>>> result("O=C1Nc2ccccc2/C1=C1/Nc2ccccc2C1=O")
">100 µg/mL"
>>> result("C=C(C)[C@@H]1CC[C@]2(CO)CC[C@]3(C)[C@H](CC[C@@H]4[C@@]5(C)CC[C@H](O)C(C)(C)[C@@H]5CC[C@]43C)[C@@H]12")
"13.30 ± 2.58 µg/mL"

Hey, can you go through the list below and give me CC50 BHK-21 for every item?
1. O=c1[nH]c2ccccc2o1
2. O=C1/C(=C2\Nc3ccccc3C2=O)Nc2ccccc21
3. Nc1ncnc2c1ncn2[C@@H]1O[C@H](CO)[C@@H](O)[C@H]1O
4. O=C1c2ccccc2-n2c1nc1ccccc1c2=O
5. C=C(C)[C@@H]1CC[C@]2(C)CC[C@]3(C)[C@H](CC[C@@H]4[C@@]5(C)CC[C@H](O)C(C)(C)[C@@H]5CC[C@]43C)[C@@H]12

1. 19.92 ± 1.57 µg/mL
2. 86.88 ± 3.72 µg/mL
3. 24.10 ± 2.57 µg/mL
4. 4.57 ± 0.26 µg/mL
5. 9.53 ± 1.32 µg/mL
